The reported measurements were obtained from paper PMC9636267.

# system: T1, HCoV-229E S ectodomain (17–1115 aa), 229E S trimer (human coronavirus 229E, UniProt P15423 17-1115)
# T1 chain: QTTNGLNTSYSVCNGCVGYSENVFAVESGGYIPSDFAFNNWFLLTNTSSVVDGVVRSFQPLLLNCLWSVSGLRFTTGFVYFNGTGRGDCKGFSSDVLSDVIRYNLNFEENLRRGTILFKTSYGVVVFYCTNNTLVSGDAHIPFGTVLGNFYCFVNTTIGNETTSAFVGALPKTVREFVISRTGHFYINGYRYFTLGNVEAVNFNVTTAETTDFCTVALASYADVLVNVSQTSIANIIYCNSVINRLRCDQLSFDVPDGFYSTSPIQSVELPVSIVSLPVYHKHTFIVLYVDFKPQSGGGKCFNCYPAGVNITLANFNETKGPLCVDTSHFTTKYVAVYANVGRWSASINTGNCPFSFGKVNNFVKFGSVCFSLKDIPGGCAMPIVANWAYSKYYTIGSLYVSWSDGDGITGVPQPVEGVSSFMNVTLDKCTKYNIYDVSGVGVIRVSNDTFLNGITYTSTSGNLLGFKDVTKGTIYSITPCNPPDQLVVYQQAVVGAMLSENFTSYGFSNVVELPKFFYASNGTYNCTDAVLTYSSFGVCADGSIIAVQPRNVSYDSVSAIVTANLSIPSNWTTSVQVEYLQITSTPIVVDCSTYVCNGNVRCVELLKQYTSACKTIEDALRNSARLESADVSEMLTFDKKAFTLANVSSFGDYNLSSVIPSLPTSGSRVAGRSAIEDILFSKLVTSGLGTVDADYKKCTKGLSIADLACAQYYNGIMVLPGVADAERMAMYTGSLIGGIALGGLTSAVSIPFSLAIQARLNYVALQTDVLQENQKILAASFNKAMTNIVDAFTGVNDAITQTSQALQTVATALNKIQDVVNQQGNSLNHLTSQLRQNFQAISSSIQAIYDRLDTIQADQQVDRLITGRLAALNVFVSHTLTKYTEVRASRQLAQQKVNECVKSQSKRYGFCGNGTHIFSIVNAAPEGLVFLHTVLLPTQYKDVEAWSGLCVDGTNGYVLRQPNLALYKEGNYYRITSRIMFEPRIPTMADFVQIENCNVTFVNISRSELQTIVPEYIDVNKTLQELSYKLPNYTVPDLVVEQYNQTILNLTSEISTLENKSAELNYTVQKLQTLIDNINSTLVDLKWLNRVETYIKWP
# procedure summary: SPR
value type: Kd

binder="Fab A11 (Fab, V domains shown) VH: EVQLVESGGGLVQPGGSLRLSCAASGFNIYSSYIHWVRQAPGKGLEWVASISSSYGYTYYADSVKGRFTISADTSKNTAYLQMNSLRAEDTAVYYCARGHGWAYVWSSYYPAGAFALDYWGQGTLVTVSS VL: DIQMTQSPSSLSASVGDRVTITCRASQSVSSAVAWYQQKPGKAPKLLIYSASSLYSGVPSRFSGSRSGTDFTLTISSLQPEDFATYYCQQSYALITFGQGTKVEIK" value_type=Kd result="9.4 nM"

Okay, next one:
The measured Kd associated with Fab D04 (Fab, V domains shown) VH: EVQLVESGGGLVQPGGSLRLSCAASGFNLSSYYIHWVRQAPGKGLEWVASISPYSSSTYYADSVKGRFTISADTSKNTAYLQMNSLRAEDTAVYYCARWYSPSYGWYWPYASGAGGLDYWGQGTLVTVSS VL: DIQMTQSPSSLSASVGDRVTITCRASQSVSSAVAWYQQKPGKAPKLLIYSASSLYSGVPSRFSGSRSGTDFTLTISSLQPEDFATYYCQQSSPHYLITFGQGTKVEIK reads 2 nM
